Assay: growth suppression of beta-catenin knockout HCT116, pilot screen, human colon tumor cells (AID 823);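 note: 0% = wells killed by 20 µM Hyamine and 100% = untreated DMSO cell wells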
Settings: CellTiter-Glo, 60 h, at 10 µM, active compounds read low
Records with an inconclusive call do not appear.
Listing: viability of selected compounds
// return numeric value only (unit: %, not printed)

1) CCc1nnc(NC(=O)CN2CCOCC2)s1 | 95.8

Query block: Give viability for the following compound: O=C(c1cccc(F)c1)N1CCN=C1SCc1cccnc1
Result block: 102

Query block: Give viability for the following compound: COc1ccc(C)cc1S(=O)(=O)N1CCN(S(=O)(=O)c2cc(C)ccc2OC)C(C)C1 (stereo unspecified)
Result block: 88.7

Query block: Give viability for the following compound: CCCn1c(C2CC(=O)N(c3cc(OC)ccc3OC)C2)nc2ccccc21 (stereo unspecified)
Result block: 98.4

Query block: Give viability for the following compound: CSc1ccc(S(=O)(=O)Nc2ccc3c(c2)OCCO3)cc1
Result block: 62.2

Query block: Give viability for the following compound: CCc1nnc(NC(=O)CSc2nccn2-c2cc(C)cc(C)c2)s1
Result block: 86.2

====

Test: growth suppression of PTEN-deleted HCT116, pilot screen, cell-based, HCT116 clonal line, CellTiter-Glo (AID 824);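 note: 0% = 20 µM Hyamine control and 100% = vehicle cell control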
Conditions: 60 h, at 10 µM
Records with an inconclusive call do not appear. The source made the active and inactive calls.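 Rule for the calls: active = viability at or below 27.92% in each of two runs, the all-compound median minus 4 SD; inconclusive = no clear call, values can overlap the other calls; inactive = the rest.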
API: response.call in yes (active), no (inactive)

Reference set, count: 5
1) Cc1cc(C)c(S(=O)(=O)N2CCN(C)CC2)c(C)c1 | no
2) Cn1c(=O)oc2cc(S(=O)(=O)N3CCCC(C(=O)NCCN4CCOCC4)C3)ccc21 (centres undefined) | no
3) Cc1ccc(NC(=O)CCNS(=O)(=O)c2cccc3nonc23)cc1 | no
4) COc1ccc(CC2CCOC2=O)cc1 (centres undefined) | no
5) CCOC(=O)C(C)Sc1nnc(Cc2cc(=O)[nH]c(=O)[nH]2)n1-c1cccc(OC)c1 (centres undefined) | no

Query block: What was the test verdict on CCN(CC)C(=O)CN(Cc1ccccc1)S(=O)(=O)c1ccc(F)cc1 ?
Result block: no

Query block: What was the test verdict on CCNC(=O)c1c(C)nc2ccccn12 ?
Result block: no

Query block: What was the test verdict on Cc1cc(C)cc(NC(=O)CSc2nc3c(c(=O)n2C)SC(C)C3)c1 (centres undefined) ?
Result block: no

Query block: What was the test verdict on CCCCn1c(CNC(=O)C(C)(C)C)nc2ccccc21 ?
Result block: no

====

Test: growth suppression of beta-catenin knockout HCT116, pilot screen, human colon tumor cells (AID 823);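 note: 0% = wells killed by 20 µM Hyamine and 100% = untreated DMSO cell wells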
Settings: CellTiter-Glo, 60 h, at 10 µM, active compounds read low
Inconclusive results are not listed.
# note: exactly 90% is not below, so it is NOT MET; use MET for viability strictly under it

Reference set, count: 7
1. CCOc1ccc(NC2c3ccccc3C(=O)N2c2ccc(Cl)cn2)cc1 (stereo unspecified) | NOT MET
2. CCOC(=O)CC1=C(C#N)C(c2cccnc2)C(C(=O)OCC)=C(N)O1 (stereo unspecified) | NOT MET
3. CCOC(=O)c1c(NC(C)=O)no[n+]1[O-] | NOT MET
4. COc1ccc(NC2=C(C)C(=O)CC2)cc1 | MET
5. CCN(CCN(C)C)C(=O)Cn1ncc2c1-c1cc(C)ccc1OC2 | NOT MET
6. Cn1c(C(=O)NC2CCCC2)cc2c(=O)n(C)c3ccccc3c21 | MET
7. Cc1nc(CNS(=O)(=O)c2ccc3ccccc3c2)cs1 | NOT MET

Then this compound:
Query block: Say whether its viability is strictly beneath 90%. Entry: OC1CCN(c2c3c(nc4cc(-c5cccc(F)c5)nn24)CCCC3)CC1
Result block: MET
